src = PubChem BioAssay (NCI)

assay: NCI Yeast Anticancer Drug Screen. Data for the sgs1 mgt1 strain (AID 161);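 further: 0% = growth of cultures given vehicle only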; conditions: S. cerevisiae sgs1 mgt1 strain, at 50.0 µM, stronger effect = higher value
About 79,000 compounds went through this panel and 15% of them were active in at least one assay; those are over-represented in the sample as a whole.
Readout Name: growth inhibition (%)

In [3]: df
Out[3]:
                                   molecule       readout_name  readout_value
0  N#Cc1cccc(Nc2ccccc2SSc2ccccc2Nc2cccc(C#N)c2)c1  growth inhibition           17.5
1             CCOC(=O)C1=C(O)CSC1=Nc1ccccc1  growth inhibition          -12.8
2  CN1CC(O)C(C(=O)NC23CC4CC(CC(C4)C2)C3)C1 (stereo not given)  growth inhibition           11.8
3  CC(C)(C)C(=O)CC(=O)C(C)(C)C.CC(C)(C)C(=O)CC(=O)C(C)(C)C.CC(C)(C)C(=O)CC(=O)C(C)(C)C.[Co]  growth inhibition           21.4
4                     O=C1C=C(c2ccccc2)CSC1  growth inhibition          -9.45
5  O=C1OC(c2ccccc2)=CC1Cc1ccccc1 (stereo not given)  growth inhibition           1.85
6  COCC(C)OC(=O)c1ccccc1Cl (stereo not given)  growth inhibition           5.95
7  CC(C)c1cccc(C(C)C)c1NC(=O)/C(Cc1nc2ccc(Cl)cc2[nH]c1=O)=N\NC(=O)C[N+](C)(C)C  growth inhibition          -12.3
8  COC(=O)CNC(=O)Nc1cc(N2C(=O)ON3C2C(C)(C)N(O)C3(C)C)ccc1C (stereo not given)  growth inhibition           16.9
9  CC(CO)CCC(O)C(C)(O)C1CCC2(O)C3=CC(=O)C4CC(O)C(O)CC4(C)C3CCC12C (stereo not given)  growth inhibition           10.2

* * *

experiment: NCI Yeast Anticancer Drug Screen. Data for the rad50 strain (AID 155);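 further: 0% = growth of vehicle-only cultures of the same strain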; conditions: S. cerevisiae rad50 strain growth inhibition; at 50.0 µM; stronger effect = higher value
This is part of a sample that, as a whole, favours compounds with a hit. Of some 79,000 tested, about 15% had one in any assay.
Readout Name: growth inhibition (%)

In [3]: df
Out[3]:
                                    compound       readout_name  unit_annotation  readout_value
 0  CCCc1cc(=O)oc2c3c(c4c(c12)OC(C)(C)CC4)O[C@H](C)C(C)C3=O (some centres undefined)  growth inhibition                %          -26.9
 1  COc1ccc(C(=O)CC(C#N)c2ccccc2Cl)cc1 (centres undefined)  growth inhibition                %           19.8
 2                  CSc1ccccc1N.[Cl][Cu][Cl]  growth inhibition                %           28.8
 3                             CC(C)OC(=O)CO  growth inhibition                %           29.6
 4  O=C(/C=C/c1ccccc1)NC(Cc1ccccc1)C(=O)O (centres undefined)  growth inhibition                %            -21
 5         COc1cc(/C=C/C(C)=O)ccc1OP(=O)(O)O  growth inhibition                %          -22.4
 6  CCCOC1OC(CS(=O)(=O)O)C(OC(C)=O)C(OC(C)=O)C1OC(C)=O (centres undefined)  growth inhibition                %           3.25
 7                    CCCc1c(C)[nH]c2ccccc12  growth inhibition                %           15.1
 8  O=C1[C@@H](c2ccc(Cl)cc2)[C@H]2CC=C[C@H]2N1O  growth inhibition                %           8.65
 9  O=C(Oc1c([N+](=O)[O-])cc(-c2ccccc2)cc1[N+](=O)[O-])c1ccccc1  growth inhibition                %           22.7
10            CC(C)CC(CC(C)C)OC(=O)Nc1ccccc1  growth inhibition                %             -1
11  CC(Sc1ccc([N+](=O)[O-])cn1)C(=O)O (centres undefined)  growth inhibition                %           2.55
12             CC(=O)NCc1cc2c3c(c1)CCCN3CCC2  growth inhibition                %              6
13             CCN(CC)CCNC1=CC(=S)NC(C)(C)C1  growth inhibition                %          -13.7
14         CC(C)OC(=O)Nc1cccc(NC(=O)OCCCl)c1  growth inhibition                %            7.1
15  O=C1C2C3C=CC(C2C(=O)N1CCl)C1C2C(=O)N(CCl)C(=O)C2C31 (centres undefined)  growth inhibition                %            4.2
16            Cn1c(=O)c2c(nc(NN)n2C)n(C)c1=O  growth inhibition                %           1.15
17               Nc1nc(SCC(=O)O)[nH]c(=O)c1N  growth inhibition                %          -16.2
18  CC(COc1ccccc1)N(CCCl)Cc1ccccc1 (centres undefined)  growth inhibition                %            2.7
19  CCc1c(CN)c(CC)c(CNC2=NCCN2)c(CC)c1CNC1=NCCN1  growth inhibition                %           13.6
20               CCc1c(CO)cnc(C)c1OP(=O)(O)O  growth inhibition                %          -33.5
21      CC(=O)N(c1ccccc1)c1cc(Cl)cc[n+]1[O-]  growth inhibition                %            8.5
22               CCOC(=O)Nc1ccc(C(=O)OCC)cc1  growth inhibition                %           29.8
23            Fc1ccc(-c2ncc(-c3ccccc3)o2)cc1  growth inhibition                %           0.95
24              CN1CCC(Cl)(C(=O)c2ccccc2)CC1  growth inhibition                %           26.2
25  N#Cc1cccc(N2C(=O)c3ccc(C(=O)c4ccc5c(c4)C(=O)N(c4cccc(C#N)c4)C5=O)cc3C2=O)c1  growth inhibition                %          -25.9
26  C[C@@H]1CC[C@]2(C)C3(C)CC[C@]2(OC3=O)[C@@]12CC(c1ccoc1)OC2=O (some centres undefined)  growth inhibition                %           -5.9
27  C/C(=N\NC(=S)Nc1ccc(C(=O)O)cc1)c1nccc2ccccc12  growth inhibition                %            3.2
28  c1ccc(CC2COC(c3cccs3)=N2)cc1 (centres undefined)  growth inhibition                %           26.9
29  Cc1nc(C)c(N2CCN(S(=O)(=O)N(Cc3ccccc3)Cc3ccccc3)CC2)c(=O)[nH]1  growth inhibition                %          -22.7
30  CCC[C@@H]1C[C@@H](OC(=S)SC)C[C@H]2CCC(=O)N12  growth inhibition                %           -3.1
31              Cc1ccc2c(c1)Nc1ccccc1P2(=O)O  growth inhibition                %            7.8
32            C[N+](C)(C)/N=C/c1ccc(O)c(O)c1  growth inhibition                %          -48.2
33  [Mn+2].[NH-]CC(=O)NC(Cc1ccccc1)C(=O)O.[NH-]CC(=O)NC(Cc1ccccc1)C(=O)O (centres undefined)  growth inhibition                %          -15.5
34  CC(=O)CC(=O)N1CCN(C(=O)CC(C)=O)C(C)C1 (centres undefined)  growth inhibition                %          -7.95
35  Nc1[nH]c(=S)nc2nc3c(c(-c4ccccc4)c12)CCCC3  growth inhibition                %          -45.9
36                    OCCSCc1cc2c(cc1Br)OCO2  growth inhibition                %          -29.5
37                    C/C(=C/C(=O)O)c1ccccc1  growth inhibition                %           10.7
38  COC(=O)C1(CC(=O)c2ccc(Cl)cc2Cl)NC(=S)NC(=O)C1C#N (centres undefined)  growth inhibition                %           19.4
39  CC(C)CCCC(C)C1CCC2(C)C3CCC(C(C)O)C(C)(CCCO)C3CCC12C (centres undefined)  growth inhibition                %           47.8
40  Cc1[nH]c(=O)n2c(C)nnc2c1C(=O)Nc1cc(Cl)cc(Cl)c1  growth inhibition                %           15.2
41                Cc1cc(Br)c(O)c(-c2cscn2)c1  growth inhibition                %          -17.6
42  O=C(Cc1ccccc1)NN1C(=O)C(Cl)C1c1cc(Br)ccc1O (centres undefined)  growth inhibition                %             21
43  CC(=O)OCCC(=O)Nc1cc([N+](=O)[O-])ccc1OCc1ccccc1  growth inhibition                %           7.05
44  O=C(/C(=C(/[O-])C(F)(F)F)[n+]1cccc2ccccc21)C(F)(F)F  growth inhibition                %           -8.6
45                   O=C1NC(=O)C(F)(F)C1(F)F  growth inhibition                %            4.9
46                          CCOC(=O)CC1OCCO1  growth inhibition                %           7.65
47  CCCN1C(=O)c2cc(=O)[nH]c(O)c2C1C (centres undefined)  growth inhibition                %          -14.2
48                      CC/C(=N/N(C)C)C(=O)O  growth inhibition                %          -29.4
